Reference source: paper PMC12316308

# system-under-test: pseudolysin (PLN, LasB) (Pseudomonas aeruginosa, UniProt P14756)
# Construct: purchased Calbiochem (San Diego, CA, USA)
# Sequence (P14756 198-498): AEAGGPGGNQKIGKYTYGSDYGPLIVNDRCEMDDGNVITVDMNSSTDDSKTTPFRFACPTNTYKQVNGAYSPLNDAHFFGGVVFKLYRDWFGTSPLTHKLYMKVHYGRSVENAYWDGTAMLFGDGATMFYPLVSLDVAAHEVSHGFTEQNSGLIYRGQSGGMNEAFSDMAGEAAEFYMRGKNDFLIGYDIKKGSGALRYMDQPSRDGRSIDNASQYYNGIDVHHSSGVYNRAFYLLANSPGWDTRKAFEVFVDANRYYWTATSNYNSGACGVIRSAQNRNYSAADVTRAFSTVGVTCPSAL
# assay-notes: Enzyme inhibition kinetics, fluorogenic substrate ES005
# Assay type: biochemical
attribute-measured: Ki

Worked examples follow.
NC(=O)C(Cc1c[nH]c2ccccc12)NC(=O)C(CCCc1ccccc1)CP(=O)(O)C(Cc1ccccc1)NC(=O)OCc1ccccc1 (stereo not drawn) [H-2] | 40 µM
CCOC(=O)C(CO)CP(=O)(O)C(Cc1ccccc1)NC(=O)OCc1ccccc1 (stereo not drawn) [H-5] | ≥ 100 µM

Shift focus to the following entry.
Entry under test: CC(NC(=O)OCc1ccccc1)P(=O)(O)CC(Cc1ccccc1)C(=O)O (stereo not drawn) [H-4] . Its Ki was ≥ 100 µM
